Task for the reader: assign each of the following compounds its reported inhibition at 10 μM.
target: hERG (human ether-a-go-go related gene potassium channel, KCNH2) (Homo sapiens); construct: expressed in transfected cells; host or cells: HEK293; experiment: hERG channel whole-cell patch clamp (Ion Channel Activity Measurement); assay type: cell-based; settings: human, HEK293 cells expressing the human ERG potassium channel, pH 7.4, 10 μM test article, room temperature

Indicate its recorded inhibition at 10 μM; the compound in question is `CCN(CC)CCOc1ccc2ccccc2c1Sc1c(O)ccc2ccccc12`
75 to 100%

Answer with the recorded inhibition at 10 μM of `CN(C)CCOc1ccc2ccccc2c1Cc1c(O)ccc2ccccc12` only.
75 to 100%

Item `CC[N+](C)(CC)CCOc1ccc2ccccc2c1Sc1c(OC)ccc2ccccc12` : provide inhibition at 10 μM
75 to 100%

Quote inhibition at 10 μM reported for `Oc1ccc2ccccc2c1Cn1c(O)nc2ccccc21` please.
< 25%

Using the record for `O=C(c1c(O)ccc2ccccc12)c1c(OCCN2CCCC2)ccc2ccccc12` , state its measured inhibition at 10 μM.
75 to 100%

* * *

Please go through the items and note down their inhibition at 10 μM.
target: hERG (human ether-a-go-go related gene potassium channel, KCNH2) (Homo sapiens, UniProt Q12809); construct: expressed in transfected cells; host or cells: HEK293; experiment: hERG channel whole-cell patch clamp (Ion Channel Activity Measurement); format: cell-based; conditions: human, HEK293 cells expressing the human ERG potassium channel, pH 7.4, 10 μM test article, room temperature
Sequence (Q12809 whole entry): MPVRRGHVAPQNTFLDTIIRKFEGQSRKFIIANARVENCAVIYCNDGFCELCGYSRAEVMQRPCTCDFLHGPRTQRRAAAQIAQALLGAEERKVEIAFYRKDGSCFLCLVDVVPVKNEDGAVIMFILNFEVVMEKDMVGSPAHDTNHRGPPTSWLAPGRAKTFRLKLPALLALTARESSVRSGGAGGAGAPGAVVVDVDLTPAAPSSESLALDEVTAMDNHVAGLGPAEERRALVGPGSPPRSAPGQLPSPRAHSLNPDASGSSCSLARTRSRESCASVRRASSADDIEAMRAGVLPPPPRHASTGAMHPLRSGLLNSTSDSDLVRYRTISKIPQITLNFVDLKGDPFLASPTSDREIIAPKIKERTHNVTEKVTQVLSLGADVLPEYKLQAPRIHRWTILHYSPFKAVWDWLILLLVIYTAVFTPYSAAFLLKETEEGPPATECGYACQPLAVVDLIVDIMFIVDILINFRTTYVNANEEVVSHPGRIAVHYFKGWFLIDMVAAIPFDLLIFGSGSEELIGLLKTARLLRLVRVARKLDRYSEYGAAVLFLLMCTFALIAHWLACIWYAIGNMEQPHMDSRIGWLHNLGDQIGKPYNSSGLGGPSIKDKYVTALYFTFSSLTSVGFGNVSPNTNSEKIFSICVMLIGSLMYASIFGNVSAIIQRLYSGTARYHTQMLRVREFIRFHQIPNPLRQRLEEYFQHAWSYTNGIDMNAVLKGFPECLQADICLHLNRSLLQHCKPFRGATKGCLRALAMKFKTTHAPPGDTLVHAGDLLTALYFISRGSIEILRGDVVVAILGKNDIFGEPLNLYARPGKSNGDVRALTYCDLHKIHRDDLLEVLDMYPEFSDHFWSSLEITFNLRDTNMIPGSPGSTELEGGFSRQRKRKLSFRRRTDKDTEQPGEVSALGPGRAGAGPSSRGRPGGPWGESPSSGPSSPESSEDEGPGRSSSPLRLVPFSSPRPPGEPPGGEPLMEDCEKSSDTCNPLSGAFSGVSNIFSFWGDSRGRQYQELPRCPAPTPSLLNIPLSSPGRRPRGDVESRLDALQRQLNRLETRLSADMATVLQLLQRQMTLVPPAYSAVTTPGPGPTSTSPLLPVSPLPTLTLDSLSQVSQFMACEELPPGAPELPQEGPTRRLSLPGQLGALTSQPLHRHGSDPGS

Provide measured inhibition at 10 μM value, entry: CCOCOc1ccc2ccccc2c1Cc1c(OCC2CCNCC2)ccc2ccccc12 [Compound A279]
75 to 100%

// fetch inhibition at 10 μM given entry COc1ccc2ccccc2c1Cc1c(OCC2CCNCC2)ccc2ccccc12 [Compound A271]
75 to 100%

For the compound COc1ccc(COCc2ccc3ccccc3c2C(O)c2c(COCc3ccc(OC)cc3)ccc3ccccc23)cc1 [Compound A080] , give its reported inhibition at 10 μM.
< 25%

Find the measured inhibition at 10 μM of CCOc1ccc2ccccc2c1Cc1c(OCCN2CCCC2)ccc2ccccc12 [Compound A255] and report it.
75 to 100%

* * *

target: CaV1.2 (L-type voltage-dependent calcium channel; CACNA1C, CACNB2, CACNA2D1) (Homo sapiens); construct: expressed in transfected cells; host or cells: CHO; assay: CaV1.2 channel whole-cell patch clamp (Ion Channel Activity Measurement); type: cell-based; details: human, pH 7.4, 10 μM test article, room temperature, read-out: CaV 1.2 10 μM (ion-channel inhibition)
Sequence (Q13936 1-2138 isoform Q13936-12): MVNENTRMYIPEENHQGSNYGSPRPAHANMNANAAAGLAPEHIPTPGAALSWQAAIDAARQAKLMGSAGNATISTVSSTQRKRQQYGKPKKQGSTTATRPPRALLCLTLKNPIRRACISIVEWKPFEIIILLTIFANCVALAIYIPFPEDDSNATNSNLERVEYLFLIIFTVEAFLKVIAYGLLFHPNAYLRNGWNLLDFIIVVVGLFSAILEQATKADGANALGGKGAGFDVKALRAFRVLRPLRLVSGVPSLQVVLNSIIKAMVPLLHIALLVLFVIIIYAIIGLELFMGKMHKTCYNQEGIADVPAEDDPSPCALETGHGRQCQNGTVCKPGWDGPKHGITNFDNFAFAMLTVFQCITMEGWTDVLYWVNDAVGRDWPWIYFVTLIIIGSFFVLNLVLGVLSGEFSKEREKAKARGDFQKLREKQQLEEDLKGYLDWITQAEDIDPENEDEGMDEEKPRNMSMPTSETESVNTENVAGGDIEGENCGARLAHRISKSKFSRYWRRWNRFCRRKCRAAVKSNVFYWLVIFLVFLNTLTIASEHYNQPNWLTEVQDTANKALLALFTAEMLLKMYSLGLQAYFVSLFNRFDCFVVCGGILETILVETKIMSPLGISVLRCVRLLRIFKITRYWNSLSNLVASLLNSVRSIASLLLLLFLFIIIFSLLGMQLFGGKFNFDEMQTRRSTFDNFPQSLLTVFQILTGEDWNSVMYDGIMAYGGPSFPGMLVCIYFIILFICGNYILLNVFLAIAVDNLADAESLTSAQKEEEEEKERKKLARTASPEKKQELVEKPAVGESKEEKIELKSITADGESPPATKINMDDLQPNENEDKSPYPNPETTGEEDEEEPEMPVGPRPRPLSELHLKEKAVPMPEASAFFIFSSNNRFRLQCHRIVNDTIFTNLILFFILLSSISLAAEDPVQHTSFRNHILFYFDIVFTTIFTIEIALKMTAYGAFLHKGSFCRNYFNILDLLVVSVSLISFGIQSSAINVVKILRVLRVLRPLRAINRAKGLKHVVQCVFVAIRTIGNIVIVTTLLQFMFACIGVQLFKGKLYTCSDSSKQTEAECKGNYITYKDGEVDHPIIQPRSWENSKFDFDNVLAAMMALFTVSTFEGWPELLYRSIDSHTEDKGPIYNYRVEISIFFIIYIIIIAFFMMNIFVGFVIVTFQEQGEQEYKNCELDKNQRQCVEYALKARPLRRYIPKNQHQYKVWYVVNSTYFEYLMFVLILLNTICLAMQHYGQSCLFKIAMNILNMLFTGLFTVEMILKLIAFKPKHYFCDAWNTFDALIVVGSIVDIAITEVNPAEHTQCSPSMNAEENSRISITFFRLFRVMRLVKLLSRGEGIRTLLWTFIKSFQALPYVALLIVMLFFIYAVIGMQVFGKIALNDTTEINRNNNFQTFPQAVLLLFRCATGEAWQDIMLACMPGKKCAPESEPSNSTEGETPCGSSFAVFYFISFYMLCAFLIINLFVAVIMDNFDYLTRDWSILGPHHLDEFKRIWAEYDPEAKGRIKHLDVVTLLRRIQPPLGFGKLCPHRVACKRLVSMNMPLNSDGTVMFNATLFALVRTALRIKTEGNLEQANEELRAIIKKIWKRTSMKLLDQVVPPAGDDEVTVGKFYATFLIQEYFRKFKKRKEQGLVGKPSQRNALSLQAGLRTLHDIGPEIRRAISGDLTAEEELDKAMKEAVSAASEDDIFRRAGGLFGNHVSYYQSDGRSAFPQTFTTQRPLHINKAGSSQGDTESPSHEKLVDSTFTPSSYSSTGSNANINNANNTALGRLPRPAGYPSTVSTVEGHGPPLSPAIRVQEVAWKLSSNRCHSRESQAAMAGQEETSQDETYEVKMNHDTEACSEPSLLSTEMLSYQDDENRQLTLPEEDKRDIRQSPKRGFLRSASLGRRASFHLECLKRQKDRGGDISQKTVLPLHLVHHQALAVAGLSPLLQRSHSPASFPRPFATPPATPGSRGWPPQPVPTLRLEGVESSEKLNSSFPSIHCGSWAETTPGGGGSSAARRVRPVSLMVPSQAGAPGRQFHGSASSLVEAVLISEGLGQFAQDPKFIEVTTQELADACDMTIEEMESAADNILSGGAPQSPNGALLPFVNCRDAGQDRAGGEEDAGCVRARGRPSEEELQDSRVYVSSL
Sequence (Q08289 1-605 isoform Q08289-2 partner): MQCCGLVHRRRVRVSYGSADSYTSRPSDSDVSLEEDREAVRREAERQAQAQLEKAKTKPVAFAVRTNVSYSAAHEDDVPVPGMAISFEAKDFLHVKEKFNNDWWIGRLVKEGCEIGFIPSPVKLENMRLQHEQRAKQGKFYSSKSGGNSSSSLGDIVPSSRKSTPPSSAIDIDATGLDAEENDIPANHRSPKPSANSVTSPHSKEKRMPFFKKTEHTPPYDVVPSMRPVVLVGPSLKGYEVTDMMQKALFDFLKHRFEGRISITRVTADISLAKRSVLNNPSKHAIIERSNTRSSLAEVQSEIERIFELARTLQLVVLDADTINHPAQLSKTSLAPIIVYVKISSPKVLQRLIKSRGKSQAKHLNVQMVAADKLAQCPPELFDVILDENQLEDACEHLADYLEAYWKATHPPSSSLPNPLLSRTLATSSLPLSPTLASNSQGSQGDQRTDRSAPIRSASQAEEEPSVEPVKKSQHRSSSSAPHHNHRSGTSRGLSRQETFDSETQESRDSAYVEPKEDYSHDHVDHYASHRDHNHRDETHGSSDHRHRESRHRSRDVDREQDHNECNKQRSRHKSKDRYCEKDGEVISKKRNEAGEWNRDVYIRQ
Sequence (P54289 25-1091 isoform P54289-2 partner limits assumed): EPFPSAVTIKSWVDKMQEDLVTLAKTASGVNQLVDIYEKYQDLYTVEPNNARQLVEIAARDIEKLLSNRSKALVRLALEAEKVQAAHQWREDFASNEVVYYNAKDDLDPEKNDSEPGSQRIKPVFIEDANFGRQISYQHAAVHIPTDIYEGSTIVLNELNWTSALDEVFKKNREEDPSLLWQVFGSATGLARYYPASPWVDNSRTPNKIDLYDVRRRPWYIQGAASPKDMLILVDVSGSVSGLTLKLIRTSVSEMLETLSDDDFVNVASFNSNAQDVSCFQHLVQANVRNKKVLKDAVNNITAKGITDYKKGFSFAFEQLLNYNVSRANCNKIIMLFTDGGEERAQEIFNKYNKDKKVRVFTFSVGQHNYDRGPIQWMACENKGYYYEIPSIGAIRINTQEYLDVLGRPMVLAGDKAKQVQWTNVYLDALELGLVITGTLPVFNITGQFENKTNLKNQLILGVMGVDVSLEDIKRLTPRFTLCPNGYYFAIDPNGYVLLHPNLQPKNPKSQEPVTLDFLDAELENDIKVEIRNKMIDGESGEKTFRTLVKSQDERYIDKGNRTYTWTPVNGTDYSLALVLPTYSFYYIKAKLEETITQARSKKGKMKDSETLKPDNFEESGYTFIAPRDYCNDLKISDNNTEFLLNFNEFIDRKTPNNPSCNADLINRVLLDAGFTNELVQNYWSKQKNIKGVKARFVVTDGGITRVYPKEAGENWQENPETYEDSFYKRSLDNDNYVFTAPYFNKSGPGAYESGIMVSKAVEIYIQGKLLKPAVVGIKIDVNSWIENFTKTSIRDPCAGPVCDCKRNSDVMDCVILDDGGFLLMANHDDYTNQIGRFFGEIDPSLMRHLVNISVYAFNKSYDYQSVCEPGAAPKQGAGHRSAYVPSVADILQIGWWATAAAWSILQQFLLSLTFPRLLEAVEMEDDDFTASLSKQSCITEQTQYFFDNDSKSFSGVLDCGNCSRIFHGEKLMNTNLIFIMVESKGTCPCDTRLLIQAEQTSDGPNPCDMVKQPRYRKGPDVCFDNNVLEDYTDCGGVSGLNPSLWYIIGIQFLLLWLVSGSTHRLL
Sequence (P54289 957-1103 partner limits assumed): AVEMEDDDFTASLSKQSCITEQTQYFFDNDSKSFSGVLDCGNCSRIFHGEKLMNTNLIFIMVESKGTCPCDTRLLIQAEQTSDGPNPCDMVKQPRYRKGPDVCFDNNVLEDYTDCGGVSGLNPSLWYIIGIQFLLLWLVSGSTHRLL
ASSAY ENDPOINT: inhibition at 5 min, 10 μM

Return the recorded inhibition at 5 min, 10 μM value; entry: Oc1cccc2c1C(c1c(O)ccc3ccccc13)CC2 (centres unmarked)
50 to 75%

Give the value of inhibition at 5 min, 10 μM reported for the following: NC(=O)c1ccc2ccccc2c1Cc1c(C(N)=O)ccc2ccccc12 [Compound A101, 1,1′-methylenebis(2-naphthamide)]
< 25%

Please supply the value of reported inhibition at 5 min, 10 μM for the item `COc1cc2ccccc2c(Cc2c(O)c(OC)cc3ccccc23)c1O`
< 25%

Identify measured inhibition at 5 min, 10 μM corresponding to `COc1ccc2ccccc2c1Cc1c(OCCN(CCO)CCO)ccc2ccccc12`
75 to 100%

In one line, give reported inhibition at 5 min, 10 μM of the entry `Oc1cccc(-c2cccnc2)c1Cc1c(O)cccc1-c1cccnc1` .
25 to 50%

Indicate the recorded inhibition at 5 min, 10 μM value for this compound: `CC(=O)N(c1c(O)ccc2ccccc12)c1c(O)ccc2ccccc12`
< 25%

Return inhibition at 5 min, 10 μM for the following compound: `CN(C)CCOc1ccc2ccccc2c1Cc1c(O)ccc2ccccc12`
75 to 100%

Annotate the compound `CCN(CC)CCOc1ccc2ccccc2c1Cc1c(O)c(C)cc2ccccc12` with its measured inhibition at 5 min, 10 μM.
< 25%
